Data origin, for the record: patent US20260317319A1

# test_system: UniProt:P28223
# Sequence (P28223 whole entry): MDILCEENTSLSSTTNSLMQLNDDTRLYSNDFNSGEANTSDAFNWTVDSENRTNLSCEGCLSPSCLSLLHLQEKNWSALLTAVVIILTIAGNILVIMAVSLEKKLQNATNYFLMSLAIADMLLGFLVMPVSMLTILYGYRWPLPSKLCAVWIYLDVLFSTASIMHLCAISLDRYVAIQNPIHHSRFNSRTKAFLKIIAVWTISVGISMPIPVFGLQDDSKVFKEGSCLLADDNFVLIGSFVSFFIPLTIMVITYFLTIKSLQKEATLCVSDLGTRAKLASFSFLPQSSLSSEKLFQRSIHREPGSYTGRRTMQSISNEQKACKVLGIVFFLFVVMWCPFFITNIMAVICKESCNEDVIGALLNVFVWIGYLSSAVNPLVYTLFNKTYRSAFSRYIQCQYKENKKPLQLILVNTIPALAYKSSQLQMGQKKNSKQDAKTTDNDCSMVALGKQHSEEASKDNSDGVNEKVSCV
# test_details: cell-based
# Type: cell-based
# Parameters: expressed in transfected cells; host or cells: HEK293, stably transfected
# experimental_parameters: HEK293, agonist, Ca2+ flux, HEK293, max dose; read-out: 5-HT2A % Act @ Max Dose
Outcome: yes for Emax of at least 60%; no for anything lower.

[
  {
    "molecule": "CCN(CC)C(=O)[C@@H]1C=C2c3cccc4[nH]cc(c34)C[C@H]2N(Cc2ccccc2OC)C1",
    "category": "no"
  },
  {
    "molecule": "CCNC(=O)[C@@H]1C=C2c3cccc4[nH]cc(c34)C[C@H]2N(Cc2cccc(OC)c2)C1",
    "category": "yes"
  },
  {
    "molecule": "CCN(CC)C(=O)[C@@H]1C=C2c3cccc4[nH]cc(c34)C[C@H]2N(Cc2ccc(F)cc2)C1",
    "category": "yes"
  },
  {
    "molecule": "CCCN1C[C@H](C(=O)N(CC)CC)C=C2c3cccc4[nH]c(Br)c(c34)C[C@H]21",
    "category": "yes"
  },
  {
    "molecule": "CCCN1C[C@H](C(=O)N(CC)CC)C=C2c3cccc4c3C(CN4)C[C@H]21 (mixture of isomers)",
    "category": "yes"
  },
  {
    "molecule": "CCC(CC)NC(=O)[C@@H]1C=C2c3cccc4[nH]c(Br)c(c34)C[C@H]2N(C)C1",
    "category": "no"
  }
]

###

# test_system: 5-HT1A receptor (Homo sapiens)
# Construct: expressed in transfected cells; host or cells: CHO cells, stably transfected
# Sequence (P08908 whole entry): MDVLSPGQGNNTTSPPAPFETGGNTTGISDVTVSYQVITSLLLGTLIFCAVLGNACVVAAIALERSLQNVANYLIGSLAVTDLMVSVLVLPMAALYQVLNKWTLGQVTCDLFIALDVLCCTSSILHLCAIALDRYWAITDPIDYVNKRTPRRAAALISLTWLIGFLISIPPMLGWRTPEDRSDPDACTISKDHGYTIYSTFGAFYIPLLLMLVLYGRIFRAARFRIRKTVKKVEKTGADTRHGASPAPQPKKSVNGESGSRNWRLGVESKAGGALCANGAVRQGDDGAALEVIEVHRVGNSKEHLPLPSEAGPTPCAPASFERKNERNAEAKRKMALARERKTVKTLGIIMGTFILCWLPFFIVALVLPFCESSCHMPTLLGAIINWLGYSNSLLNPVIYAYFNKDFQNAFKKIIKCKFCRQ
# test_details: cell-based
# experimental_parameters: CHO, agonist, Ca2+ flux, CHO cells with Gα15, max dose; read-out: 5-HT1A % Act @ Max Dose
Outcome: class 1 for Emax of at least 80%; class 0 for anything lower.

[
  {
    "compound": "CCN(CC)C(=O)[C@@H]1C=C2c3cccc4[nH]cc(c34)C[C@H]2N(Cc2ccon2)C1 [Compound 70]",
    "test_system": "5-HT1A receptor (Homo sapiens)",
    "category": "class 0"
  },
  {
    "compound": "CCN(CC)C(=O)[C@@H]1C=C2c3cccc4[nH]cc(c34)C[C@H]2N(Cc2cccc(C#N)c2)C1 [Compound 76]",
    "test_system": "5-HT1A receptor (Homo sapiens)",
    "category": "class 0"
  },
  {
    "compound": "CCCN1C[C@H](C(=O)N[C@H](C)CC)C=C2c3cccc4[nH]c(Br)c(c34)C[C@H]21 [Compound 46]",
    "test_system": "5-HT1A receptor (Homo sapiens)",
    "category": "class 0"
  },
  {
    "compound": "CC[C@@H](C)NC(=O)[C@H]1C=C2c3cccc4[nH]cc(c34)C[C@H]2N(C)C1 [Int8a]",
    "test_system": "5-HT1A receptor (Homo sapiens)",
    "category": "class 1"
  },
  {
    "compound": "CC[C@@H](C)NC(=O)[C@@H]1C=C2c3cccc4[nH]c(Br)c(c34)C[C@H]2N(C)C1 [Compound 43]",
    "test_system": "5-HT1A receptor (Homo sapiens)",
    "category": "class 0"
  },
  {
    "compound": "CCN(CC)C(=O)[C@@H]1C=C2c3cccc4[nH]cc(c34)C[C@H]2N(Cc2cccc3ccccc23)C1 [Compound 101]",
    "test_system": "5-HT1A receptor (Homo sapiens)",
    "category": "class 0"
  },
  {
    "compound": "CCCN1C[C@H](C(=O)N(CC)CC)C=C2c3cccc4c3C(CN4)C[C@H]21 (mixture of isomers) [Compound 36]",
    "test_system": "5-HT1A receptor (Homo sapiens)",
    "category": "class 1"
  }
]
